B1: CPEB3 Ribozyme (parent)
chain: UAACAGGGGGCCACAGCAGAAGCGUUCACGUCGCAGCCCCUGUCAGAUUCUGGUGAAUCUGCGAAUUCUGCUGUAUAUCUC

Variants of: B1
method notes: self-cleavage, relative activity (ratio to wild type); higher = more cleavage; in vitro, sequencing
measured metric: self-cleavage
Please reply with the value in numeric form only.

Examples with answers:
1) C4A C62U	0.23
2) U31C G36U	0.14
3) C44U U66A	0.51
4) U51G A65G	0.72
5) A65U U67A	0.02

Quick one: self-cleavage for G30A U58C ? 0.16

Quick one: self-cleavage for A3G C50A ? 0.82

Quick one: self-cleavage for U49G G63A ? 0.28

Quick one: self-cleavage for U1G U72C ? 1

Quick one: self-cleavage for G6A A57G ? 0.34

Quick one: self-cleavage for A28C U60C ? 0.29

Quick one: self-cleavage for A3U A13C ? 0.96

Quick one: self-cleavage for U51A U74A ? 1.29

Quick one: self-cleavage for G7C U60C ? 0.2

Quick one: self-cleavage for A5G U43C ? 0.43

Quick one: self-cleavage for A57G U66C ? 0.4

Quick one: self-cleavage for A35G U51G ? 1.28
